System: Falciformispora senegalensis CBS197.79
Assay: growth relative to untreated control; higher = less inhibition, active = 20 or less
Settings: 25 µM
Classes to choose from: 1 (active), -1 (inactive)

Reference set (2 entries):
Input line: // outcome(item) with item = `CN(C)c1ncc2nc(Nc3cc(Cl)cc(C(F)(F)F)c3)n(C3CCNCC3)c2n1`
Output line: -1

Input line: // outcome(item) with item = `Cc1cccc2c1N(C(=O)c1cc(Br)nn1-c1ncccc1Cl)CN(C(C)C)C2=O`
Output line: -1

Next:
Input line: // outcome(item) with item = `COc1cc2c3cc1Oc1c(OC)c(OC)cc4c1[C@@H](Cc1ccc(O)c(c1)Oc1ccc(cc1)C[C@@H]3N(C)CC2)N(C)CC4`
Output line: -1

Input line: // outcome(item) with item = `COc1ccc2cc1Oc1ccc(cc1)C[C@H]1c3cc(c(OC)cc3CCN1C)Oc1c(OC)c(OC)cc3c1[C@H](C2)N(C)CC3`
Output line: -1

Input line: // outcome(item) with item = `CC(C)CN(C[C@@H](O)[C@H](Cc1ccccc1)NC(=O)O[C@H]1CO[C@H]2OCC[C@H]21)S(=O)(=O)c1ccc(N)cc1`
Output line: -1

Input line: // outcome(item) with item = `CCOc1cc(C(C)(C)C)ccc1C1=N[C@@](C)(c2ccc(Cl)cc2)[C@@](C)(c2ccc(Cl)cc2)N1C(=O)N1CCN(CCCS(C)(=O)=O)CC1`
Output line: -1

Input line: // outcome(item) with item = CC(Nc1ccc2c(c1)OCCCO2)C(=O)Nc1cc(C(F)(F)F)ccc1N1CCOCC1 (stereo not drawn)
Output line: -1

Input line: // outcome(item) with item = CC(N)CCn1c(Nc2cc(Cl)cc(C(F)(F)F)c2)nc2cnc(NC3CCCC3)nc21 (stereo not drawn)
Output line: 1
